# tested-target: RSV prefusion F (preF), subtype B (respiratory syncytial virus, subtype B)
# assay-protocol: BLI, IgG
parameter-measured: Kd (nM)
Numbers only; they are read as nM.

INPUT: Tell us which Kd value is on record for ADI-14579 (antibody, V domains shown) VH: QVQLVQSGAEVKKPGESLKISCKVSGYSFTSYWIGWVRQMPGKGLEWMGIIYPGDSDTRYSPSFQGQVTISADKSITTAYLQWSSLKASDTAMYYCARPAHSSSWYGAFDLWGQGTTVTVSS VL: DIQMTQSPSSLSASVGDRVTITCRASQGISNYLAWYQQKPGKVPKLLIYAASTLQSGVPSRFSGSGSGTDFTLTISSLQPEDVATYYCQKYNSAPLTFGGGTKVEIK
OUTPUT: 3.73

INPUT: Tell us which Kd value is on record for ADI-20997 (antibody, V domains shown) VH: EVQLVESGGGVVQPGRSLRLSCAASGFPFNSYGMHWVRQAPGKGLEWLAVIYFDESTAYYADSVKGRFTISRDNSKSTLYLQMNSLRAADTAIYYCTTTVMIPYGGVFWGQGTLVTVSS VL: EIVMTQSPGTLSLSPGDRATLSCRASQSVGSTHFAWYQQKPGQAPRLLIYAASIRATGIPDRFSGGGSGTDFTLTISRLAPEDFAVYYCQQYGSTPITFGQGTRLEIK
OUTPUT: 3.09

INPUT: Tell us which Kd value is on record for ADI-20961 (antibody, V domains shown) VH: QVQLVESGGGLVKPGGSLRLSCAASGFKFSSYYMHWVRQAPGKGLEWVSSVSGGSTYTSYADSVKGRFTISRDNAKHSLFLQLNSLRAEDTAVYHCVRGDYHPSGTSLNWFDPWGQGTLVTVSS VL: QPGLTQPPSVSGAPGQRVTISCTGSSSNIGAGYDVHWYKQLPGTVPKLLIYANNNRPSGVPDRFSGSESGTSASLAITGLQAEDEADYYCQSYDSSLNAYVFGTGTKVTVL
OUTPUT: 0.504
